Measured pIC50, listed per entry.
target: ALK (baculovirus expressed human ALK kinase domain F1098-K1410) (Homo sapiens); construct: human ALK kinase domain F1098-K1410; made in house; experiment: biochemical; details: 1 μM ATP, 4 μM poly-AEKY, 12 nM ALK, 2 hours at ambient temperature; read-out: ALK IC50
pIC50: −log10 of the molar value.

NC(=O)[C@@H](Cc1ccccc1)NC(=O)c1csc(CNC(=O)COc2ccc(OC(F)(F)F)cc2)n1
6.30 to 7.30
CN(C)c1ccc(CNC(=O)c2csc(CNC(=O)COc3ccc(OC(F)(F)F)cc3)n2)cc1
5.70 to 6.30
CCCC1CCN(C(=O)c2csc(CNC(=O)COc3ccc(OC(F)(F)F)cc3)n2)CC1
5.70 to 6.30
O=C(COc1ccc(OC(F)(F)F)cc1)NCc1nc(C(=O)N[C@H]2CCCc3ccccc32)cs1
6.30 to 7.30
O=C(COc1ccc(Br)cc1)NCc1nc(C(=O)NCCc2ccccc2F)cs1
5.70 to 6.30
COc1ccc(CNC(=O)c2csc(CNC(=O)COc3ccc(OC(F)(F)F)cc3)n2)cc1
6.30 to 7.30

Ask: Fill in the recorded pIC50 for this compound, with ALK (baculovirus expressed human ALK kinase domain F1098-K1410) (Homo sapiens) as test system: `O=C(COc1ccc(OC(F)(F)F)cc1)NCc1nc(C(=O)NCCc2c[nH]c3ccccc23)co1`
Reply: 5.70 to 6.30

Ask: Fill in the recorded pIC50 for this compound, with ALK (baculovirus expressed human ALK kinase domain F1098-K1410) (Homo sapiens) as test system: CCN(CC)C(=O)C1CCCN(C(=O)c2csc(CNC(=O)COc3ccc(OC(F)(F)F)cc3)n2)C1 (stereo not shown)
Reply: 5.70 to 6.30

Ask: Fill in the recorded pIC50 for this compound, with ALK (baculovirus expressed human ALK kinase domain F1098-K1410) (Homo sapiens) as test system: `O=C(COc1ccc(OC(F)(F)F)cc1)NCc1nc(C(=O)NCCC2=CCCCC2)cs1`
Reply: 6.30 to 7.30

* * *

biological target: ALK (baculovirus expressed human ALK kinase domain F1098-K1410) (Homo sapiens); construct: human ALK kinase domain F1098-K1410; made in house; assay: biochemical; conditions: 1 μM ATP, 4 μM poly-AEKY, 12 nM ALK, 2 hours at ambient temperature; read-out: ALK IC50
value.kind: IC50

Here is how some compounds turned out for IC50.
CC(C)c1ccc(OCC(=O)NCc2nc(C(=O)NCCc3ccccc3F)cs2)cc1 [Entry 55]
50 to 500 nM
CCOc1ccccc1CNC(=O)c1coc(CNC(=O)COc2ccc(OC(F)(F)F)cc2)n1 [Entry 235]
500 to 2000 nM
C[C@H](NC(=O)c1csc(CNC(=O)COc2ccc(OC(F)(F)F)cc2)n1)C1CCCCC1 [Entry 95]
50 to 500 nM

Ask: Given the compound O=C(COc1ccc(OC(F)(F)F)cc1)NCc1nc(C(=O)NCC2c3ccccc3CCc3ccccc32)cs1 [Entry 4] , what is its reported IC50?
Reply: < 50 nM

Ask: Given the compound O=C(COc1ccc(OC(F)(F)F)cc1)NCc1nc(C(=O)NCc2ccco2)cs1 [Entry 249] , what is its reported IC50?
Reply: 500 to 2000 nM

Ask: Given the compound O=C(C/C=C/c1ccccc1)NCc1nc(C(=O)NCCc2cccc(Cl)c2)cs1 [Entry 208] , what is its reported IC50?
Reply: 50 to 500 nM

Ask: Given the compound O=C(Cc1ccc2ccccc2c1)NCc1nc(C(=O)NCCc2ccccc2F)cs1 [Entry 169] , what is its reported IC50?
Reply: 50 to 500 nM

Ask: Given the compound COc1ccc(CCNC(=O)c2csc(CNC(=O)COc3ccc(OC(F)(F)F)cc3)n2)cc1OC [Entry 42] , what is its reported IC50?
Reply: 50 to 500 nM

Ask: Given the compound COc1ccc(CCNC(=O)c2coc(CNC(=O)COc3ccc(OC(F)(F)F)cc3)n2)cc1 [Entry 224] , what is its reported IC50?
Reply: 500 to 2000 nM

Ask: Given the compound O=C(COc1ccc(OC(F)(F)F)cc1)NCc1nc(C(=O)NCC(c2ccccc2)c2ccccc2)cs1 [Entry 18] , what is its reported IC50?
Reply: < 50 nM

Ask: Given the compound O=C(COc1ccc(OC(F)(F)F)cc1)NCc1nc(C(=O)N2CCC3CCCCC3C2)cs1 (stereo not shown) [Entry 294] , what is its reported IC50?
Reply: 500 to 2000 nM

Ask: Given the compound C#CC1(NC(=O)c2csc(CNC(=O)COc3ccc(OC(F)(F)F)cc3)n2)CCCCC1 [Entry 180] , what is its reported IC50?
Reply: 50 to 500 nM

Ask: Given the compound CSCCNC(=O)c1csc(CNC(=O)COc2ccc(OC(F)(F)F)cc2)n1 [Entry 195] , what is its reported IC50?
Reply: 50 to 500 nM

Ask: Given the compound O=C(NCc1nc(C(=O)NCCc2cccc(Cl)c2)cs1)OCc1ccc(OC(F)(F)F)cc1 [Entry 298] , what is its reported IC50?
Reply: 500 to 2000 nM

Ask: Given the compound COc1ccccc1CNC(=O)c1csc(CNC(=O)COc2ccc(Cl)cc2)n1 [Entry 263] , what is its reported IC50?
Reply: 500 to 2000 nM

Ask: Given the compound O=C(COc1ccc(OC(F)(F)F)cc1)NCc1nc(C(=O)NCc2ccc(Cl)cc2)cs1 [Entry 227] , what is its reported IC50?
Reply: 500 to 2000 nM

Ask: Given the compound Cc1ccc(CCNC(=O)c2csc(CNC(=O)COc3ccc(OC(F)(F)F)cc3)n2)c(C)c1 [Entry 49] , what is its reported IC50?
Reply: 50 to 500 nM

Ask: Given the compound O=C(COc1ccc(OC(F)(F)F)cc1)NCc1nc(C(=O)NCc2ccc(Cl)c(C(F)(F)F)c2)cs1 [Entry 73] , what is its reported IC50?
Reply: 50 to 500 nM

* * *

Biological target: ALK (baculovirus expressed human ALK kinase domain F1098-K1410) (Homo sapiens, UniProt Q9UM73)
Construct: human ALK kinase domain F1098-K1410; made in house
Sequence (Q9UM73 1098-1410): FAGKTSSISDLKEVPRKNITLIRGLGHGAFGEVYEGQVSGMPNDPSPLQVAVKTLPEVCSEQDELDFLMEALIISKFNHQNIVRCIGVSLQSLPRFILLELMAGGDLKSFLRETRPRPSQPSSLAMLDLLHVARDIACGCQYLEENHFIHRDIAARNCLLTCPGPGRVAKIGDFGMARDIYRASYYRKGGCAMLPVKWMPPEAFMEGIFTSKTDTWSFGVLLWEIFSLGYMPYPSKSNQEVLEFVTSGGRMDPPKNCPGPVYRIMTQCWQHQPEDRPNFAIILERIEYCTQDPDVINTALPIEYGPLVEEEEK
Test: biochemical
Conditions: 1 μM ATP, 4 μM poly-AEKY, 12 nM ALK, 2 hours at ambient temperature; read-out: ALK IC50
Description: Kinase activity and compound inhibition are investigated using one or more of the three assay formats described below. The ATP concentrations for each assay are selected to be close to the Michaelis-Menten constant (KM) for each individual kinase. […] ALK biochemical activity was assessed using a Luciferase-Coupled Chemiluminescent Kinase assay (LCCA) format in which kinase activity was measured as the percent ATP remaining following the kinase reaction. […]
value.kind: IC50

COc1cccc(CNC(=O)c2csc(CNC(=O)COc3ccc(OC(F)(F)F)cc3)n2)c1OC
< 50 nM
CSCCCNC(=O)c1csc(CNC(=O)COc2ccc(OC(F)(F)F)cc2)n1
50 to 500 nM
CC(C)(C)CCNC(=O)c1csc(CNC(=O)COc2ccc(OC(F)(F)F)cc2)n1
50 to 500 nM
C[C@H](CNC(=O)c1csc(CNC(=O)COc2ccc(OC(F)(F)F)cc2)n1)c1ccccc1
< 50 nM
CCCCCCN(C)C(=O)c1csc(CNC(=O)COc2ccc(OC(F)(F)F)cc2)n1
50 to 500 nM

Ask: Given the compound `O=C(COc1ccc(OC(F)(F)F)cc1)NCc1nc(C(=O)NCc2cccc(F)c2F)cs1` , what is its reported IC50?
Reply: 50 to 500 nM

Ask: Given the compound CCC(C)CNC(=O)c1csc(CNC(=O)COc2ccc(OC(F)(F)F)cc2)n1 (stereo not shown) , what is its reported IC50?
Reply: 50 to 500 nM

Ask: Given the compound `CSc1ccc(CC(=O)NCc2nc(C(=O)NCCc3cccc(Cl)c3)cs2)cc1` , what is its reported IC50?
Reply: 500 to 2000 nM

Ask: Given the compound `CCC(CC)CNC(=O)c1csc(CNC(=O)COc2ccc(OC(F)(F)F)cc2)n1` , what is its reported IC50?
Reply: 50 to 500 nM

Ask: Given the compound `O=C(COc1ccc(OC(F)(F)F)cc1)NCc1nc(C(=O)N2CCc3ccccc3C2)cs1` , what is its reported IC50?
Reply: 50 to 500 nM

* * *

Measured IC50, listed per entry.
molecular target: ALK (baculovirus expressed human ALK kinase domain F1098-K1410) (Homo sapiens, UniProt Q9UM73); construct: human ALK kinase domain F1098-K1410; made in house; experiment: biochemical; conditions: 1 μM ATP, 4 μM poly-AEKY, 12 nM ALK, 2 hours at ambient temperature; read-out: ALK IC50

Here is how some molecules turned out for IC50.
COc1ccccc1CCNC(=O)c1csc(CNC(=O)COc2ccc(OC(F)(F)F)cc2)n1
50 to 500 nM
CC(NC(=O)c1csc(CNC(=O)COc2ccc(OC(F)(F)F)cc2)n1)c1ccccc1 (stereo not shown)
50 to 500 nM

Ask: Given the molecule O=C(COc1ccc(OC(F)(F)F)cc1)NCc1nc(C(=O)NC2CCCc3ccccc32)cs1 (stereo not shown) , what is its reported IC50?
Reply: 50 to 500 nM

Ask: Given the molecule `O=C(COc1ccc(I)cc1)NCc1nc(C(=O)NCCc2cccc(Cl)c2)cs1` , what is its reported IC50?
Reply: < 50 nM

Ask: Given the molecule `CCOC(=O)N1CCC(NC(=O)c2csc(CNC(=O)COc3ccc(OC(F)(F)F)cc3)n2)CC1` , what is its reported IC50?
Reply: 500 to 2000 nM

Ask: Given the molecule `O=C(COc1ccc(OC(F)(F)F)cc1)NCc1nc(C(=O)NCc2cccc(Cl)c2)cs1` , what is its reported IC50?
Reply: 50 to 500 nM

Ask: Given the molecule `NC(=O)C1CCN(C(=O)c2csc(CNC(=O)COc3ccc(OC(F)(F)F)cc3)n2)CC1` , what is its reported IC50?
Reply: 500 to 2000 nM

Ask: Given the molecule `C#CC(CC)(CC)NC(=O)c1csc(CNC(=O)COc2ccc(OC(F)(F)F)cc2)n1` , what is its reported IC50?
Reply: 50 to 500 nM

Ask: Given the molecule `COc1cccc(OC)c1CNC(=O)c1csc(CNC(=O)COc2ccc(OC(F)(F)F)cc2)n1` , what is its reported IC50?
Reply: 50 to 500 nM
